// compounds with log10(Ki) on Adenosine receptor A2a (Homo sapiens, UniProt P29274), multi-source literature
Sequence (P29274 whole entry): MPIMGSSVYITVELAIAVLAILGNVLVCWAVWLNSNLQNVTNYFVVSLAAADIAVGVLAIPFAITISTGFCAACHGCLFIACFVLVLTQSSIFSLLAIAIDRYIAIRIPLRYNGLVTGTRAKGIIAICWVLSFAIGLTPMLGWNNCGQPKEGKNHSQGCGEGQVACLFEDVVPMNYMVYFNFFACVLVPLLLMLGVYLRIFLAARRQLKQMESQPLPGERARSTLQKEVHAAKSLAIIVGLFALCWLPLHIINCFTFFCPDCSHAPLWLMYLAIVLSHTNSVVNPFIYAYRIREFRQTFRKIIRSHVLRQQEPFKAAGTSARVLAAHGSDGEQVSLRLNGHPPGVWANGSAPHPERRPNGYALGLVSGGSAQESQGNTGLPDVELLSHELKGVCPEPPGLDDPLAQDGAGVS
Transform log10 | Measure Ki | Unit nM

Here is how some compounds turned out for log10(Ki).
compound: COc1cc(-c2nc3c([nH]2)c(=O)n(C)c(=O)n3C)ccc1OCCN1CCCC1
val: 3.00
--
compound: CN(CCOc1ccc(C(=O)NO)cc1)c1nc(N)n2nc(-c3ccco3)nc2n1
val: 1.20
--
compound: Cc1ccc2c(O)c(C(=O)NCCC(C)C)cnc2n1
val: 2.81
--
compound: CCn1nnc([C@H]2O[C@@H](n3cnc4c(N)nc(NC(C)Cc5ccc(F)cc5)nc43)[C@H](O)[C@@H]2O)n1 (mixture of isomers)
val: 1.07
--
compound: Nc1ccc(-n2nc3c(N)nc(-c4ccccc4)cn3c2=O)cc1
val: 3.54
--
compound: CC(=O)Nc1cc(-c2ccccc2)nc(-c2ccccc2)n1
val: 2.41

Please examine the following record next.
Q: Reported log10(Ki) for Adenosine receptor A2a (Homo sapiens, UniProt P29274), given "CCN(C(C)=O)c1ccc(OC)c2nc(NC(=O)c3ccc(-n4ccnc4)cc3)sc12" ?
A: 1.89
